- Test system: T84 cells
- assayDetails: Electrogenic Cl- secretion (short circuit current, Isc) in confluent T84 monolayers
- Assay type: cell-based, human
- condition: Homo sapiens, T84, read-out: IC50 for inhibiting the secretory response to E. Coli heat-stabile toxin
measuredAttribute: IC50 (µM)

| recordSmiles | measuredOn | scaleUnit | result |
| --- | --- | --- | --- |
| Clc1ccccc1C(c1ccccc1)(c1ccccc1)n1ccnc1 | T84 cells | µM | 15 |
